meta.source: PubChem BioAssay AID2060885

system: NCI-H23 complex spheroids with HUVEC/MSC, viability; experiment: Anticancer human tumor NCI-H23 cell line growth inhibition [RAS]; details: second compound 1 µM; first compound 0.316 µM; stronger effect = lower value;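 note: spheroids exposed to compound for 7 days; 100% = DMSO vehicle control viability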
Below, each of the compounds is paired with its reported viability, T/C value.
measuredQuantity: viability, T/C (%)

CC(Nc1ccc2c(c1)OCCn1cc(N3C(=O)OCC3C(F)F)nc1-2)C(N)=O (stereo not given) + C=CC(=O)N1CCN(c2nc(OCC3CCCN3C)nc3c(F)c(-c4nc(N)cc(C)c4C(F)(F)F)c(Cl)cc23)C(C)C1 : 28.8
CCC(CC)c1cc(NC2CCC(N)C2)n2nccc2n1 (stereo not given) + C#Cc1c(F)ccc2cc(O)cc(-c3ncc4c(N5CC6CCC(C5)N6)nc(OCC56CCCN5CC(F)C6)nc4c3F)c12 : 92
NC1c2ccccc2OC12CCN(c1cnc3c(N4CCCc5ncccc54)n[nH]c3n1)CC2 (stereo not given) + C=CC(=O)N1CCN(c2nc(OCC3CCCN3C)nc3c(F)c(-c4nc(N)cc(C)c4C(F)(F)F)c(Cl)cc23)C(C)C1 : 20.1
O=C(c1ccc(F)c(F)c1Nc1ccc(I)cc1F)N1CC(O)([C@@H]2CCCCN2)C1 + C=CC(=O)N1CCN(c2nc(OCC3CCCN3C)nc3c(F)c(-c4nc(N)cc(C)c4C(F)(F)F)c(Cl)cc23)C(C)C1 : 24.2
Nc1ccn(C2OC(CO)C(O)C2(F)F)c(=O)n1 (stereo not given) + C=CC(=O)N1CCN(c2nc(OCC3CCCN3C)nc3c(F)c(-c4nc(N)cc(C)c4C(F)(F)F)c(Cl)cc23)C(C)C1 : 2.71

----------
system: NCI-H23 complex spheroids with HUVEC/MSC, viability; assay: Anticancer human tumor NCI-H23 cell line growth inhibition [RAS]; conditions: second compound 0.0949 µM; first compound 10 µM; active = viability on the fitted dose curve at most 10% of control; inactive = the rest;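 note: spheroids exposed to compound for 7 days; 100% = DMSO vehicle control viability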
Classes used: active, inactive

NC1c2ccccc2OC12CCN(c1cnc3c(N4CCCc5ncccc54)n[nH]c3n1)CC2 (stereo not drawn) + CCn1c(-c2cc(N3CCN(C)CC3)cnc2C(C)OC)c2c3cc(ccc31)-c1csc(n1)CC(NC(=O)C1CC1C)C(=O)N1CCCC(N1)C(=O)OCC(C)(C)C2 : active
CC1(O)CCCC1n1c(=O)c(C(F)F)cc2cnc(NC3CCN(S(C)(=O)=O)CC3)nc21 (stereo not drawn) + CCn1c(-c2cc(N3CCN(C)CC3)cnc2C(C)OC)c2c3cc(ccc31)-c1csc(n1)CC(NC(=O)C1CC1C)C(=O)N1CCCC(N1)C(=O)OCC(C)(C)C2 : active
CCC(CC)c1cc(NC2CCC(N)C2)n2nccc2n1 (stereo not drawn) + CCn1c(-c2cccnc2C(C)OC)c2c3cc(ccc31)N1CCOC(CC(NC(=O)C(C(C)C)N(C)C(=O)C3(F)CCN(C(=O)C#CC(C)(C)N(C)C)CC3)C(=O)N3CCCC(N3)C(=O)OCC(C)(C)C2)C1 : active
C[C@@H](NC(=O)c1ncnc(N)c1Cl)c1ncc(C(=O)Nc2cc(C(F)(F)F)c(Cl)cn2)s1 + CCn1c(-c2cccnc2C(C)OC)c2c3cc(ccc31)N1CCOC(CC(NC(=O)C(C(C)C)N(C)C(=O)C3(F)CCN(C(=O)C#CC(C)(C)N(C)C)CC3)C(=O)N3CCCC(N3)C(=O)OCC(C)(C)C2)C1 : inactive
CC1(O)CCCC1n1c(=O)c(C(F)F)cc2cnc(NC3CCN(S(C)(=O)=O)CC3)nc21 (stereo not drawn) + CCn1c(-c2cccnc2C(C)OC)c2c3cc(ccc31)N1CCOC(CC(NC(=O)C(C(C)C)N(C)C(=O)C3(F)CCN(C(=O)C#CC(C)(C)N(C)C)CC3)C(=O)N3CCCC(N3)C(=O)OCC(C)(C)C2)C1 : active
CCC(CC)c1cc(NC2CCC(N)C2)n2nccc2n1 (stereo not drawn) + CCn1c(-c2cc(N3CCN(C)CC3)cnc2C(C)OC)c2c3cc(ccc31)-c1csc(n1)CC(NC(=O)C1CC1C)C(=O)N1CCCC(N1)C(=O)OCC(C)(C)C2 : active
NC1c2ccccc2OC12CCN(c1cnc3c(N4CCCc5ncccc54)n[nH]c3n1)CC2 (stereo not drawn) + CCn1c(-c2cccnc2C(C)OC)c2c3cc(ccc31)N1CCOC(CC(NC(=O)C(C(C)C)N(C)C(=O)C3(F)CCN(C(=O)C#CC(C)(C)N(C)C)CC3)C(=O)N3CCCC(N3)C(=O)OCC(C)(C)C2)C1 : active
CC(=O)OC12COC1CC(O)C1(C)C(=O)C(O)C3=C(C)C(OC(=O)C(O)C(NC(=O)OC(C)(C)C)c4ccccc4)CC(O)(C(OC(=O)c4ccccc4)C21)C3(C)C (stereo not drawn) + CCn1c(-c2cc(N3CCN(C)CC3)cnc2C(C)OC)c2c3cc(ccc31)-c1csc(n1)CC(NC(=O)C1CC1C)C(=O)N1CCCC(N1)C(=O)OCC(C)(C)C2 : inactive

----------
tested on: NCI-H23 complex spheroids with HUVEC/MSC, viability; assay: Anticancer human tumor NCI-H23 cell line growth inhibition [RAS]; details: second compound 0.03 µM; first compound 0.03 µM; stronger effect = lower value;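 note: spheroids exposed to compound for 7 days; 100% = DMSO vehicle control viability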
measuredQuantity: viability, T/C

CCc1c2c(nc3ccc(O)cc13)-c1cc3c(c(=O)n1C2)COC(=O)[C@]3(O)CC + CCn1c(-c2cc(N3CCN(C)CC3)cnc2C(C)OC)c2c3cc(ccc31)-c1csc(n1)CC(NC(=O)C1CC1C)C(=O)N1CCCC(N1)C(=O)OCC(C)(C)C2 : 2.36%
CCc1c2c(nc3ccc(O)cc13)-c1cc3c(c(=O)n1C2)COC(=O)[C@]3(O)CC + CCn1c(-c2cccnc2C(C)OC)c2c3cc(ccc31)N1CCOC(CC(NC(=O)C(C(C)C)N(C)C(=O)C3(F)CCN(C(=O)C#CC(C)(C)N(C)C)CC3)C(=O)N3CCCC(N3)C(=O)OCC(C)(C)C2)C1 : 2.17%
CC1(C)CCC(Nc2ncc(C(F)(F)F)c(-c3c[nH]c4c(P(C)(C)=O)c(C#N)ccc34)n2)CN1 (centres undefined) + CCn1c(-c2cc(N3CCN(C)CC3)cnc2C(C)OC)c2c3cc(ccc31)-c1csc(n1)CC(NC(=O)C1CC1C)C(=O)N1CCCC(N1)C(=O)OCC(C)(C)C2 : 12.8%
CC1(C)CCC(Nc2ncc(C(F)(F)F)c(-c3c[nH]c4c(P(C)(C)=O)c(C#N)ccc34)n2)CN1 (centres undefined) + CCn1c(-c2cccnc2C(C)OC)c2c3cc(ccc31)N1CCOC(CC(NC(=O)C(C(C)C)N(C)C(=O)C3(F)CCN(C(=O)C#CC(C)(C)N(C)C)CC3)C(=O)N3CCCC(N3)C(=O)OCC(C)(C)C2)C1 : 15.7%

----------
system: NCI-H23 complex spheroids with HUVEC/MSC, viability; experiment: Anticancer human tumor NCI-H23 cell line growth inhibition [RAS]; details: second compound 0.01 µM; first compound 0.316 µM; stronger effect = lower value;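 note: spheroids exposed to compound for 7 days; 100% = DMSO vehicle control viability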
Please respond with satisfied when measured viability, T/C is strictly beneath 30%, and with not satisfied in all other cases.

Cc1nc(N2CCC3(CC2)COC(C)C3N)c(CO)nc1Sc1ccnc(N)c1Cl (stereo not given) + C=CC(=O)N1CCN(c2nc(OCC3CCCN3C)nc3c(F)c(-c4nc(N)cc(C)c4C(F)(F)F)c(Cl)cc23)C(C)C1 : satisfied
CC(Nc1ccc2c(c1)OCCn1cc(N3C(=O)OCC3C(F)F)nc1-2)C(N)=O (stereo not given) + C=CC(=O)N1CCN(c2nc(OCC3CCCN3C)nc3c(F)c(-c4nc(N)cc(C)c4C(F)(F)F)c(Cl)cc23)C(C)C1 : not satisfied
NC1c2ccccc2OC12CCN(c1cnc3c(N4CCCc5ncccc54)n[nH]c3n1)CC2 (stereo not given) + C=CC(=O)N1CCN(c2nc(OCC3CCCN3C)nc3c(F)c(-c4nc(N)cc(C)c4C(F)(F)F)c(Cl)cc23)C(C)C1 : satisfied
CCC(CC)c1cc(NC2CCC(N)C2)n2nccc2n1 (stereo not given) + C=CC(=O)N1CCN(c2nc(OCC3CCCN3C)nc3c(F)c(-c4nc(N)cc(C)c4C(F)(F)F)c(Cl)cc23)C(C)C1 : not satisfied
CC1(O)CCCC1n1c(=O)c(C(F)F)cc2cnc(NC3CCN(S(C)(=O)=O)CC3)nc21 (stereo not given) + C=CC(=O)N1CCN(c2nc(OCC3CCCN3C)nc3c(F)c(-c4nc(N)cc(C)c4C(F)(F)F)c(Cl)cc23)C(C)C1 : satisfied

----------
test system: NCI-H23 complex spheroids with HUVEC/MSC, viability; test: Anticancer human tumor NCI-H23 cell line growth inhibition [RAS]; conditions: second compound 0.03 µM; first compound 1 µM; active means viability on the fitted dose curve at most 10% of control; inactive means the rest;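 note: spheroids exposed to compound for 7 days; 100% = DMSO vehicle control viability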
Classes used: 1 (active), 0 (inactive)

C=CC(=O)N1CCN(c2nc(OCC3CCCN3C)nc3c(F)c(-c4nc(N)cc(C)c4C(F)(F)F)c(Cl)cc23)C(C)C1 (stereo not drawn) + CCn1c(-c2cccnc2C(C)OC)c2c3cc(ccc31)N1CCOC(CC(NC(=O)C(C(C)C)N(C)C(=O)C3(F)CCN(C(=O)C#CC(C)(C)N(C)C)CC3)C(=O)N3CCCC(N3)C(=O)OCC(C)(C)C2)C1 : 0
CC(Nc1ccc2c(c1)OCCn1cc(N3C(=O)OCC3C(F)F)nc1-2)C(N)=O (stereo not drawn) + CCn1c(-c2cc(N3CCN(C)CC3)cnc2C(C)OC)c2c3cc(ccc31)-c1csc(n1)CC(NC(=O)C1CC1C)C(=O)N1CCCC(N1)C(=O)OCC(C)(C)C2 : 0
CC(C)NCC(C(=O)N1CCN(c2ncnc3c2C(C)CC3O)CC1)c1ccc(Cl)cc1 (stereo not drawn) + CCn1c(-c2cc(N3CCN(C)CC3)cnc2C(C)OC)c2c3cc(ccc31)-c1csc(n1)CC(NC(=O)C1CC1C)C(=O)N1CCCC(N1)C(=O)OCC(C)(C)C2 : 0
Nc1ccn(C2OC(CO)C(O)C2(F)F)c(=O)n1 (stereo not drawn) + CCn1c(-c2cc(N3CCN(C)CC3)cnc2C(C)OC)c2c3cc(ccc31)-c1csc(n1)CC(NC(=O)C1CC1C)C(=O)N1CCCC(N1)C(=O)OCC(C)(C)C2 : 1
NC1c2ccccc2OC12CCN(c1cnc3c(N4CCCc5ncccc54)n[nH]c3n1)CC2 (stereo not drawn) + CCn1c(-c2cc(N3CCN(C)CC3)cnc2C(C)OC)c2c3cc(ccc31)-c1csc(n1)CC(NC(=O)C1CC1C)C(=O)N1CCCC(N1)C(=O)OCC(C)(C)C2 : 1
CCN1CCN(Cc2ccc(Nc3ncc(F)c(-c4cc(F)c5nc(C)n(C(C)C)c5c4)n3)nc2)CC1 + CCn1c(-c2cccnc2C(C)OC)c2c3cc(ccc31)N1CCOC(CC(NC(=O)C(C(C)C)N(C)C(=O)C3(F)CCN(C(=O)C#CC(C)(C)N(C)C)CC3)C(=O)N3CCCC(N3)C(=O)OCC(C)(C)C2)C1 : 0
CC1(O)CCCC1n1c(=O)c(C(F)F)cc2cnc(NC3CCN(S(C)(=O)=O)CC3)nc21 (stereo not drawn) + CCn1c(-c2cc(N3CCN(C)CC3)cnc2C(C)OC)c2c3cc(ccc31)-c1csc(n1)CC(NC(=O)C1CC1C)C(=O)N1CCCC(N1)C(=O)OCC(C)(C)C2 : 0
Nc1ccn(C2OC(CO)C(O)C2(F)F)c(=O)n1 (stereo not drawn) + CCn1c(-c2cccnc2C(C)OC)c2c3cc(ccc31)N1CCOC(CC(NC(=O)C(C(C)C)N(C)C(=O)C3(F)CCN(C(=O)C#CC(C)(C)N(C)C)CC3)C(=O)N3CCCC(N3)C(=O)OCC(C)(C)C2)C1 : 1
